Attribution: patent US12466821B2

- ASSAY_SYSTEM: human HSV DNA polymerase UL30 (Human herpesvirus 1 (strain 17) (HHV-1) (Human herpes simplex virus 1), UniProt P04293)
- ASSAY_PROCEDURE: HSV polymerase biochemical assay (molecular beacon-based)
MEASURED_PARAMETER: IC50
Output should be the measured figure followed by the unit it is expressed in.

Some solved entries appear below for comparison.
{"columns": ["COMPOUND", "ENDPOINT_VALUE"],
 "data": [
  ["N#Cc1ccc(CNC(=O)c2ccc3n(c2=O)CCN(CC2(S(=O)(=O)C4COC4)CC2)C3=O)cc1 [Example 28]", "68.7 nM"],
  ["N#Cc1ccc(CNC(=O)c2ccc3n(c2=O)CCN(CC2(S(=O)(=O)C4CC4)CC2)C3=O)cc1F [Example 3-1]", "38.1 nM"],
  ["CN(CCN1CCn2c(ccc(C(=O)NCc3ccc(Cl)cc3)c2=O)C1=O)C(=O)OC(C)(C)C [Example 54]", "1930 nM"]
]}

Next up:
Query string: Complete the entry with IC50 for CN1CCn2c(ccc(C(=O)NCc3ccc(Cl)cc3)c2=O)C1=O [Example 114]
Result string: 25000 nM

----------
- ASSAY_SYSTEM: human CMV DNA polymerase UL54 (Human cytomegalovirus (strain AD169) (HHV-5) (Human herpesvirus 5), UniProt P08546)
- ASSAY_PROCEDURE: CMV polymerase biochemical assay (molecular beacon-based)
In this section we review reported pIC50 values for a set of molecules.
Just so you know, pIC50 here is -log10 of the concentration in molar units; reply with that number alone.

{"columns": ["MOLECULE", "pIC50"],
 "data": [
  ["CN(CCN1CCn2c(c(CCCO)cc(C(=O)NCc3ccc(Cl)cc3)c2=O)C1=O)S(C)(=O)=O", 6.65],
  ["N#Cc1ccc(CNC(=O)c2ccc3n(c2=O)CCN(CC2(S(=O)(=O)CC4(C#N)CC4)CC2)C3=O)cc1", 8.44],
  ["CN(CCN1CCn2c(c(Br)cc(C(=O)NCc3ccc(Cl)cc3)c2=O)C1=O)S(C)(=O)=O", 6.46],
  ["N#Cc1ccc(CNC(=O)c2ccc3n(c2=O)CCN(CC2(S(=O)(=O)N4CCC4)CC2)C3=O)cc1", 8.49],
  ["CC(C)(CO)S(=O)(=O)C1(CN2CCn3c(ccc(C(=O)NCc4ccc(C#N)nc4)c3=O)C2=O)CC1", 8.54],
  ["O=C(NCc1ccc(Cl)cc1)c1ccc2n(c1=O)CCN(CC1(N3CCCS3(=O)=O)CC1)C2=O", 8.85]
]}

Query string: Complete the entry with pIC50 for `CS(=O)(=O)N1CCC[C@@H]1CN1CCn2c(ccc(C(=O)NCc3ccc(Cl)cc3)c2=O)C1=O`
Result string: 6.38

Query string: Complete the entry with pIC50 for O=C(NCc1ccc(Cl)cc1)c1ccc2n(c1=O)CCN(CC1(S(=O)(=O)C3CCNC3)CC1)C2=O (stereo not drawn)
Result string: 8.47

Query string: Complete the entry with pIC50 for `CC(=O)N(C)CCN1CCn2c(ccc(C(=O)NCc3ccc(Cl)cc3)c2=O)C1=O`
Result string: 6.44

Query string: Complete the entry with pIC50 for C[S+]([O-])C1(CN2CCn3c(ccc(C(=O)NCc4ccc(Cl)cc4)c3=O)C2=O)CC1 (stereo not drawn)
Result string: 7.24

Query string: Complete the entry with pIC50 for `CC(C)(CN)S(=O)(=O)C1(CN2CCn3c(ccc(C(=O)NCc4ccc(Cl)cc4)c3=O)C2=O)CC1`
Result string: 8.96

Query string: Complete the entry with pIC50 for `CC(C)S(=O)(=O)C1(CN2CCn3c(ccc(C(=O)NCc4ccc(C#N)cc4)c3=O)C2=O)CC1`
Result string: 8.80

Query string: Complete the entry with pIC50 for `N#Cc1ccc(CNC(=O)c2ccc3n(c2=O)CCN(CCS(=O)(=O)C2CC2)C3=O)cc1`
Result string: 6.99

----------
- System: EBV (SNU-719 gastric carcinoma cell line latently infected with EBV)
- ASSAY_PROCEDURE: EBV qPCR assay (cellular herpesvirus replication)
- Assay type: cell-based
- MEASUREMENT_CONTEXT: human gammaherpesvirus 4; SNU-719 cells, TPA/NaB reactivation, qPCR after 72 hrs; n>3, value (+/- spread)
- Method: For all viral assays, 10 mM DMSO stock compound solutions were serially diluted in DMSO at 3.16 fold dilutions in 96-well clear round bottom plates. […] EBV qPCR assay: The assay uses the SNU-719 gastric carcinoma cell line which is latently infected with EBV. Upon reactivation with chemical reagents, EBV DNA copy number was measured by qPCR. […] qPCR reactions were carried out in a total reaction volume of 20 μL, using the QuantiFast® Multiplex PCR kit (Qiagen cat #204656). […]
MEASURED_PARAMETER: EC50 (nM)
Reply with just the number (in nM).

Query string: Complete the entry with EC50 for `N#Cc1ccc(CNC(=O)c2ccc3n(c2=O)CCN(CC2(S(=O)(=O)C4CC4)CC2)C3=O)cc1`
Result string: 12

----------
- ASSAY_SYSTEM: human CMV DNA polymerase UL54 (Human cytomegalovirus (strain AD169) (HHV-5) (Human herpesvirus 5), UniProt P08546)
- ASSAY_PROCEDURE: CMV polymerase biochemical assay (molecular beacon-based)
In this section we review reported IC50 values for a set of molecules.
Reply with just the number (in nM).

Some solved entries appear below for comparison.
{"columns": ["MOLECULE", "RESULT_UNIT", "IC50"],
 "data": [
  ["N#Cc1ccc(CNC(=O)c2cc(F)c3n(c2=O)CCN(CC2(S(=O)(=O)C4CC4)CC2)C3=O)cc1F", "nM", 1.9],
  ["Cc1cc(C(=O)NCc2ccc(C#N)c(F)c2)c(=O)n2c1C(=O)N(CC1(S(=O)(=O)C3CC3)CC1)CC2", "nM", 5.9],
  ["CC(C)S(=O)(=O)C1(CN2CCn3c(ccc(C(=O)NCc4ccc(Cl)cc4)c3=O)C2=O)CC1", "nM", 0.9],
  ["CS(=O)(=O)C1(CN2CCn3c(ccc(C(=O)NCc4ccc(F)cc4)c3=O)C2=O)CC1", "nM", 20],
  ["CN(CCN1CCn2c(ccc(C(=O)NCc3ccc(Cl)cc3)c2=O)C1=O)S(=O)(=O)C1CC1", "nM", 124],
  ["N#Cc1ccc(CNC(=O)c2ccc3n(c2=O)CCN(CC2(S(=O)(=O)C4CCCC4)CC2)C3=O)cc1F", "nM", 0.8]
]}

Query string: Complete the entry with IC50 for `CN(C(C)(C)C)S(=O)(=O)C1(CN2CCn3c(ccc(C(=O)NCc4ccc(Cl)cc4)c3=O)C2=O)CC1`
Result string: 0.4

Query string: Complete the entry with IC50 for `Cc1cc(C(=O)NCc2ccc(C#N)cc2)c(=O)n2c1C(=O)N(CC1(S(C)(=O)=O)CC1)CC2`
Result string: 4.7

Query string: Complete the entry with IC50 for `CC(C)(C#N)S(=O)(=O)C1(CN2CCn3c(ccc(C(=O)NCc4ccc(Cl)cc4)c3=O)C2=O)CC1`
Result string: 1.2

----------
- ASSAY_SYSTEM: human CMV DNA polymerase UL54 (Human cytomegalovirus (strain AD169) (HHV-5) (Human herpesvirus 5))
- ASSAY_PROCEDURE: CMV polymerase biochemical assay (molecular beacon-based)
In this section we review reported IC50 values for a set of molecules.
Reply with just the number (in nM).

Some solved entries appear below for comparison.
{"columns": ["MOLECULE", "IC50, nM"],
 "data": [
  ["N#Cc1ccc(CNC(=O)c2ccc3n(c2=O)CCN(CC2(S(=O)(=O)C4(C(F)F)CC4)CC2)C3=O)cc1Cl [Example 99-3]", 0.8],
  ["CS(=N)(=O)C1(CN2CCn3c(ccc(C(=O)NCc4ccc(Cl)cc4)c3=O)C2=O)CC1 (stereo not drawn) [Example 95]", 16.6],
  ["N#Cc1ccc(CNC(=O)c2ccc3n(c2=O)CCN(CC2(S(=O)(=O)C4(CF)CC4)CC2)C3=O)cc1 [Example 13]", 0.4]
]}

Query string: Complete the entry with IC50 for O=C(NCc1ccc(Cl)cc1)c1ccc2n(c1=O)CCN(CC1(S(=O)(=O)CC3CC3)CC1)C2=O [Example 107-1]
Result string: 1.9

----------
- ASSAY_SYSTEM: human HSV DNA polymerase UL30 (Human herpesvirus 1 (strain 17) (HHV-1) (Human herpes simplex virus 1), UniProt P04293)
- ASSAY_PROCEDURE: HSV polymerase biochemical assay (molecular beacon-based)
In this section we review reported IC50 values for a set of compounds.
Reply with just the number (in nM).

Some solved entries appear below for comparison.
{"columns": ["COMPOUND", "RESULT_UNIT", "IC50"],
 "data": [
  ["N#Cc1ccc(CNC(=O)c2ccc3n(c2=O)CCN(CC2(S(=O)(=O)C4(C(F)F)CC4)CC2)C3=O)cc1F [Example 99-2]", "nM", 52.4],
  ["N#Cc1ccc(CNC(=O)c2ccc3n(c2=O)CCN(CC2(S(=O)(=O)C4CCCC4)CC2)C3=O)cc1 [Example 22]", "nM", 56.3],
  ["O=C(NCc1ccc(Cl)cc1)c1ccc2n(c1=O)CCN(CC1(S(=O)(=O)C3CCNC3)CC1)C2=O (stereo not shown) [Example 80-1]", "nM", 97.6]
]}

Next up:
Query string: Complete the entry with IC50 for O=C(NCc1ccc(Cl)cc1)c1ccc2n(c1=O)CCN(CC1(S(=O)(=O)CC3CC3)CC1)C2=O [Example 107-1]
Result string: 61.6
